# TEST_TARGET: Sodium-dependent dopamine transporter (Rattus norvegicus)
# Sequence (P23977 whole entry): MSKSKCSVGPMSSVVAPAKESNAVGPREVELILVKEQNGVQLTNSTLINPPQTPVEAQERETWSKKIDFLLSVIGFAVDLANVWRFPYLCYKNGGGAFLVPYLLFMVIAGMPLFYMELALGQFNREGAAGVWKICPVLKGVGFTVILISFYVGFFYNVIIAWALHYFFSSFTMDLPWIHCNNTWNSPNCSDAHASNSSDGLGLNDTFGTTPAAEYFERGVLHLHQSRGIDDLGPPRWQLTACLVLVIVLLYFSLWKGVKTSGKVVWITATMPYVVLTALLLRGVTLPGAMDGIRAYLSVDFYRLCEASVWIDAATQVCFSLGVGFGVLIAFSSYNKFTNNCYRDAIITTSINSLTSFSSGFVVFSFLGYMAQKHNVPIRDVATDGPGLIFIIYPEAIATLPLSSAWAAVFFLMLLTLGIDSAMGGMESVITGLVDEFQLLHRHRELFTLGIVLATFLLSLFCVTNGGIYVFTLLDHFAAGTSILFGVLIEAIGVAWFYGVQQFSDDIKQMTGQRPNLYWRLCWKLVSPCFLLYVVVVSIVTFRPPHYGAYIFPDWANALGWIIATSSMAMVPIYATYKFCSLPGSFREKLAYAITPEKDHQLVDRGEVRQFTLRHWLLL
# EXPERIMENT: Binding affinity for DA transporter using [125I]RTI-55 in frozen rat caudate membranes
# Assay type: cell membranes
MEASURED_METRIC: log10 of Ki (log10 of the value in nM)

{"MOLECULE": "CNC1CC(c2ccc(Cl)c(Cl)c2)c2ccc(OC)cc21 (trans isomer)", "log10 of Ki": 1.08}
{"MOLECULE": "CCN(CC)C1CC(c2ccc(Cl)c(Cl)c2)c2ccc(O)cc21 (trans isomer)", "log10 of Ki": 1.60}
{"MOLECULE": "CN[C@H]1C[C@H](c2ccc(Cl)c(Cl)c2)c2ccc(OC)cc21", "log10 of Ki": 2.78}
{"MOLECULE": "CNC1CC(c2ccc(Cl)c(Cl)c2)c2ccc(OC)cc21 (cis isomer)", "log10 of Ki": 1.98}
{"MOLECULE": "CNC1CC(c2ccc(Cl)c(Cl)c2)c2ccc(O)cc21 (trans isomer)", "log10 of Ki": 1.04}
{"MOLECULE": "CN[C@@H]1C[C@@H](c2ccc(Cl)c(Cl)c2)c2ccc(OC)cc21", "log10 of Ki": 0.95}
{"MOLECULE": "CCN(CC)C1CC(c2ccc(Cl)c(Cl)c2)c2ccc(OC)cc21 (trans isomer)", "log10 of Ki": 2.15}
{"MOLECULE": "CCN(CC)C1CC(c2ccc(Cl)c(Cl)c2)c2ccc(OC)cc21 (cis isomer)", "log10 of Ki": 3.12}
